Each entry below carries its reported kon.
- SYSTEM_NAME: T1, factor H binding protein (fHbp) variant 3.28 (Neisseria meningitidis M1239, fHbp v3.28, UniProt Q19KF7, strain)
- T1 construct: also called fHbp v3.28; fHbp v3; source: E. coli BL21(DE3), purified (Ni-NTA; SEC when necessary)
- ASSAY: SPR
- CONDITION_PARAMETERS: both partners purified
OBSERVED_PROPERTY: kon (M⁻¹ s⁻¹)

INSERT INTO results (binder, observed_property, observed) VALUES
  ('human anti-fHbp mAb 2G1 (antibody, V domains shown, source: Expi293, transient transfection, purified (protein G Sepharose)) VH: QVQLVESGGDLVKPGGSLRLSCVASGFTFSSYTMNWVRQAPGKGLEWVSSITSSSSFTYYADSVKGRFIISRDNAKNSLSLQMNNLRVEDTATYYCARRKDSSDYDWYYYYGMDVWGLGTTVTVSS VL: QSVLTQPPSVSAAPGQKVTISCSGSSSNIGDNYMSWYQQIPGTAPKLLIFDNDQRPSGIPDRFSASKSGTSATLDITGFQTGDEADYYCGTWDSGLSAPVFGGGTKLTVL', 'kon', 332000),
  ('human anti-fHbp mAb 4F9 (antibody, V domains shown, source: Expi293, transient transfection, purified (protein G Sepharose)) VH: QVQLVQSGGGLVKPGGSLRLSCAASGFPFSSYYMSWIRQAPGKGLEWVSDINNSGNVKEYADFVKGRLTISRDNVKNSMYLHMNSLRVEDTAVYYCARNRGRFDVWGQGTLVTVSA VL: EIVMTQSPGTLSLSPGETATLSCRASQMISSPFLAWYQQRRGQAPRLLIYGASTRATDTPDRFRGSGSGTDFILTISRLEPEDFAVYYCQHYDDSPFTFGQGTKLEIK', 'kon', 380000),
  ('human anti-fHbp mAb 3B7 (antibody, V domains shown, source: Expi293, transient transfection, purified (protein G Sepharose)) VH: EVQLVQSGAEVKKPGSSVKVSCKASGDTFSNYPISWVRQAPGQGLEWMGGIIPIFGTANYAQKFQGRVTITADESTSTPYMELSSLRSEDTAVYYCARGDTAMAPFDYWGQGTLVTVSS VL: SYVLTQPPSVSVAPGKTARITCGGNSIGSKSVHWYQQKPGQAPVLVIYYDSDRPSGVPERISGSNSGNTATLTISRVEAGDEADYYCQVWDSSSDSWVFGGGTKLTVL', 'kon', 382000);
